Listing: EC50 of selected binders
Biological target: T1, cynomolgus CD30L expressed on HEK293 cells (cynomolgus, UniProt A0A7N9CVX7 1-234)
T1 construct: whole, on cells; also called HEK293-cyCD30L; HEK-cyCD30L
T1 sequence: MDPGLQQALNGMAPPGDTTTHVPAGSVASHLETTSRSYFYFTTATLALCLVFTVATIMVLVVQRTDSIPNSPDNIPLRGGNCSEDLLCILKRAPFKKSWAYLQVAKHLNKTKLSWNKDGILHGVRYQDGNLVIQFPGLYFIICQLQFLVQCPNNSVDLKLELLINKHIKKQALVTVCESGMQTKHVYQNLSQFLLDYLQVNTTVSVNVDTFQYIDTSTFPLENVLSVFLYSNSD
Assay: flow cytometry, binding to HEK293-cyCD30L cells
Enter your answer as a number in nM; do not include the unit.

Previously resolved entries follow.
BINDER: anti-CD30L antibody clone 1 (antibody, V domains shown, also called clone 1 parental) VH: QVQLQESGPGLVKPSETLSLTCTVSGGSISGYYWSWIRQPPVKGLEWIGYIFYSGYTKYNPSLKSRVTISVDTSKNQFSLKLSSVTAADTAVYYCARDRWDFDYWGQGALVTVSS VL: AIQMTQSPSYLSASVGDRVTIACRASQGIRNNLGWYQQKPGKAPKLLIYAESSLQSGVPSRFSGSGSGTDFTLTISSLQPEDFATYYCLQDFNYPYTFGQGTKLEIK
EXPERIMENTAL_VALUE: 0.67
//
BINDER: anti-CD30L Reference 1 antibody (antibody, human IgG1, lambda, V domains shown) VH: QVQLQESGPGLVKPSETLSLTCTVSGGSISSYIWSWIRQPAGKGLEWIGRIYASGNTNYNPSLKSRVTISVDTSKNQFSLKLSSMTAADTAVYYCARDYRVAGTYYYYYGLDVWGQGTTVTVSS VL: QSALTQPASVSGSPGQSITISCTGTSSDVGVYDYVSWYQQHPGKAPKLMIYEVSNRPSGVSNRFSGSKSGNTASLTISGLQTEDEADYYCSSYTSRSTWVFGGGTKLTVLG
EXPERIMENTAL_VALUE: 0.56
//
BINDER: anti-CD30L antibody clone 2 (antibody, V domains shown, also called clone 2 parental) VH: EVQLVESGGGLVQPGRSLRLSCAASGFNFDDYAMHWVRQAPGKGLEWVSGISWRSGNIGYAGSVKGRFTISRDNAKNSLYLQMNSLRPEDSALYYCAKDKGIGFNWNYEGFDYWGQGTLVTVSS VL: DIQMTQSPSSLSASVGDRVTITCRASQGISNHLAWFQQKPGKAPKSLIYAASSLQSGVPSKFSGSGSGTDFTLTISSLQPEDFATYYCQQYVTYPLTFGGGTKVEIK
EXPERIMENTAL_VALUE: 0.3

The measured EC50 associated with anti-CD30L antibody clone 2 germlined (antibody, V domains shown, also called germlined clone 2) VH: EVQLVESGGGLVQPGRSLRLSCAASGFNFDDYAMHWVRQAPGKGLEWVSGISWRSGNIGYADSVKGRFTISRDNAKNSLYLQMNSLRAEDTALYYCAKDKGIGFNWNYEGFDYWGQGTLVTVSS VL: DIQMTQSPSSLSASVGDRVTITCRASQGISNHLAWFQQKPGKAPKSLIYAASSLQSGVPSRFSGSGSGTDFTLTISSLQPEDFATYYCQQYVTYPLTFGGGTKVEIK reads 0.33
